- Test system: SW-620
- protocol: NCI tumour cell line growth inhibition, 48 h
Calls of active or inactive are those of the source. Rule as the data show it: active = GI50 up to about 1.1 µM and inactive = higher.
In this exercise, the only acceptable responses are label 1 (active), label 0 (inactive)

Exam item: Query: recorded result category for CN(C)c1ccc(/C=C2\N=C(NN)NC2=O)cc1 in this test
Marked response: label 0

Exam item: Query: recorded result category for Cc1cc2c(cc1-c1cc3c(cc1C)C(C(C)C)=C(O)C(=O)/C3=C\NCC1CCCN3CCCCC13)/C(=C/NCC1CCCN3CCCCC13)C(=O)C(O)=C2C(C)C (centres undefined) in this test
Marked response: label 0

Exam item: Query: recorded result category for C=C1CCC(O)C/C1=C/C=C1\CCCC2(C)C1CCC2C(C)CCCC(C)C (centres undefined) in this test
Marked response: label 0

Exam item: Query: recorded result category for COc1cc(CNc2nc3c(NC(C)=O)cc(C(F)(F)F)cc3nc2-c2ccccc2)cc(OC)c1OC in this test
Marked response: label 0

Exam item: Query: recorded result category for CCN(CC)C(=O)Cn1c2c(c3ccccc31)CCCC2 in this test
Marked response: label 0

Exam item: Query: recorded result category for O=C(Nc1c(Cl)cc([N+](=O)[O-])cc1Cl)/C(=N\Nc1cccc(Cl)c1)c1c(O)c2ccccc2oc1=O in this test
Marked response: label 0

Exam item: Query: recorded result category for CC(C)CC[C@H](O)[C@@H](C)[C@H]1[C@@H](OC2OC(C)C(O)C(O)C2O)C[C@H]2[C@@H]3CC=C4C[C@@H](O)CC[C@]4(C)[C@H]3[C@@H](O)C[C@]12C (some centres undefined) in this test
Marked response: label 1

Exam item: Query: recorded result category for C[N+](C)(C)CC1CCCCCCCCCCC1=O (centres undefined) in this test
Marked response: label 0

Exam item: Query: recorded result category for O=C(c1cc(Cl)ccc1Cl)N1CCN(C(=O)c2cc(Cl)ccc2Cl)CC1 in this test
Marked response: label 0

###

- System: KM12
- protocol: NCI tumour cell line growth inhibition, 48 h
Active and inactive are the calls of the source. Rule as the data show it: active = GI50 up to about 1.1 µM and inactive = higher.
In this exercise, the only acceptable responses are yes (1) = active, no (0) = inactive

Exam item: Query: recorded result category for COC1=C(C)C(=O)C2=C(C1=O)[C@@H]1[C@@H]3Cc4c(OC(=O)CO)c(C)c(OC)c(O)c4[C@H](CNC(=O)C(C)=O)N3[C@@H](C#N)[C@H](C2)N1C in this test
Marked response: yes (1)

Exam item: Query: recorded result category for COc1cc2c(cc1OC)C13CCN4CC5=CCOC(CC(=O)O)C(C5CC41)C3N2 (stereo unspecified) in this test
Marked response: no (0)

Exam item: Query: recorded result category for CC1CC2C3CCC4=CC(=O)C=CC4(C)C3(F)C(O)CC2(C)C1(O)C(=O)COP(=O)(O)O (stereo unspecified) in this test
Marked response: no (0)

Exam item: Query: recorded result category for COC(=O)C1=C(C)N2CCSC2(C)C(C(=O)OC)C1c1cccc(Cl)c1 (stereo unspecified) in this test
Marked response: no (0)

Exam item: Query: recorded result category for CS(=O)(=O)c1c(N)c2nc(Cl)cn2c2nc3ccccc3nc12 in this test
Marked response: no (0)

Exam item: Query: recorded result category for O=C1Sc2ccccc2C(=O)N2CSCC12 (stereo unspecified) in this test
Marked response: no (0)

Exam item: Query: recorded result category for CC[N+]1(C)CCC(O)(c2ccccc2)C(C(=O)c2ccccc2)C1 (stereo unspecified) in this test
Marked response: no (0)

Exam item: Query: recorded result category for COC(=O)C1C(O)C(C)C(O)C(C)C=C(C)C2=C3C(=C(C)C(=O)c4c(O)c(c(C)c(OC(C)=O)c43)NC(=O)C(C)=C/C=C\C(C)C(O)C(C)C1O)OCO2 (stereo unspecified) in this test
Marked response: no (0)

Exam item: Query: recorded result category for O=C1C=CC2(C=C1)C[C@H](NC(=O)OCc1ccccc1)C(=O)O2 in this test
Marked response: no (0)

Exam item: Query: recorded result category for O=C(c1ccccc1)[C@H]1Nc2ccc(Cl)cc2[C@H]2c3ccccc3O[C@H]21 in this test
Marked response: no (0)

Exam item: Query: recorded result category for CCOc1ccc(NCC2CC/C(=C\c3ccccc3OC)C2=O)cc1 (stereo unspecified) in this test
Marked response: no (0)

Exam item: Query: recorded result category for CCOC(=O)/C(I)=C/c1cc(OC)c(OC)c(OC)c1 in this test
Marked response: no (0)

Exam item: Query: recorded result category for COc1ccc(CC#C/C=C/C(=O)NCC(C)C)cc1 in this test
Marked response: no (0)

Exam item: Query: recorded result category for COC(=O)C[S+]([O-])c1ccccc1 (stereo unspecified) in this test
Marked response: no (0)

Exam item: Query: recorded result category for COc1cccc2ccc(C(=O)c3ccccc3)nc12 in this test
Marked response: no (0)

Exam item: Query: recorded result category for O=c1cc2n(c(=O)[nH]1)C1OC(C(O)C1O)[C@H]2CCO (stereo partly specified) in this test
Marked response: no (0)

Exam item: Query: recorded result category for CC(C)(C)OC(=O)Nc1cc(-c2ccccc2)co1 in this test
Marked response: no (0)

Exam item: Query: recorded result category for O=C1c2ccccc2C(=O)c2c(NCCNCCO)ccc(O)c21 in this test
Marked response: no (0)

Exam item: Query: recorded result category for CCOc1cn(C2OC(CO)C(O)C2O)c(=O)[nH]c1=O (stereo unspecified) in this test
Marked response: no (0)

Exam item: Query: recorded result category for N#Cc1c(O)n(-c2ccccc2)c(=O)c2c(N)n[nH]c12 in this test
Marked response: no (0)

Exam item: Query: recorded result category for CN(N=O)C(=O)N[C@H]1C(O)O[C@H](CO)[C@@H](O)[C@@H]1O (stereo partly specified) in this test
Marked response: no (0)

###

- Test system: MOLT-4
- protocol: NCI tumour cell line growth inhibition, 48 h
Calls of active or inactive are those of the source. Rule as the data show it: active = GI50 up to about 1.1 µM and inactive = higher.
In this exercise, the only acceptable responses are active, inactive

Exam item: Query: recorded result category for O=C1C=CC2(C=C1)C[C@H](NC(=O)OCc1ccccc1)C(=O)O2 in this test
Marked response: inactive

Exam item: Query: recorded result category for COc1cc(S(=O)(=O)Nc2ccc(-c3csc(/N=C\c4cccc(Oc5ccccc5)c4)n3)cc2)ccc1Cl in this test
Marked response: inactive

Exam item: Query: recorded result category for O=C1C(F)=CC(COC(c2ccccc2)(c2ccccc2)c2ccccc2)OC1n1cc(F)c(=O)[nH]c1=O (configuration not stated) in this test
Marked response: active

Exam item: Query: recorded result category for O=C(O)c1c[nH]c2c(=O)[nH]cnc12 in this test
Marked response: inactive

Exam item: Query: recorded result category for COC(=O)c1nc(C(=O)OC)c2c([nH]c3ccccc32)c1C(=O)OC in this test
Marked response: inactive

Exam item: Query: recorded result category for Cc1cccc(NC(N)=S)c1 in this test
Marked response: inactive

Exam item: Query: recorded result category for COc1ccccc1NCc1nnc(CCCCCCCCc2nnc(CNc3ccccc3OC)o2)o1 in this test
Marked response: inactive

###

- System: SK-OV-3
- protocol: NCI tumour cell line growth inhibition, 48 h
Calls of active or inactive are those of the source. Cut-off read from the data, not from the text of the source: active = GI50 up to about 1.1 µM and inactive = higher.
Consider the following compounds; for each one, report its GI50.

Exam item: Provide GI50, recorded with SK-OV-3, of CCOC(=O)C1=CN=C2C(=O)N(c3ccccc3)N(C)C2(C)C1=N (stereo not given)
Marked response: > 100 µM (inactive)

Exam item: Provide GI50, recorded with SK-OV-3, of CC1(C)C(/C=N\O)=[N+]([O-])C(C)(C)N1O
Marked response: > 100 µM (inactive)

Exam item: Provide GI50, recorded with SK-OV-3, of OC(C/C(=N\N=C(/CC(O)(C(F)(F)F)C(F)(F)F)c1ccccc1)c1ccccc1)(C(F)(F)F)C(F)(F)F
Marked response: > 10 µM (inactive)

Exam item: Provide GI50, recorded with SK-OV-3, of NCCOCn1cc(Cc2cccc(OCc3ccccc3)c2)c(=O)[nH]c1=O
Marked response: > 100 µM (inactive)

Exam item: Provide GI50, recorded with SK-OV-3, of CC(=O)Oc1ccc(O)c2c1CCCC2
Marked response: 46.7 µM (inactive)

###

Consider the following compounds; for each one, report its GI50.
- Test system: NCI-H23
- protocol: NCI tumour cell line growth inhibition, 48 h
Calls of active or inactive are those of the source. Rule as the data show it: active = GI50 up to about 1.1 µM and inactive = higher.

Exam item: Using known records, supply GI50 for COc1ccc(C(OCC2OC(n3cnc4c(=O)n(Cc5ccccc5[N+](=O)[O-])nnc43)C(O)C2O)(c2ccccc2)c2ccc(OC)cc2)cc1 (stereo not drawn)
Marked response: 13.4 µM (inactive)

Exam item: Using known records, supply GI50 for C#C[C@@]1(O)CCCC2=CC(=O)C[C@]21C
Marked response: > 100 µM (inactive)

Exam item: Using known records, supply GI50 for CS(=O)(=O)c1c(N)c2nc(Cl)cn2c2nc3ccccc3nc12
Marked response: 68.9 µM (inactive)

Values from ChEMBL document CHEMBL1201862
